Target: Ssc1 (mitochondrial heat shock protein 70 of Saccharomyces cerevisiae) (S. cerevisiae, UniProt P0CS90 24-654)
Sequence (P0CS90 24-654): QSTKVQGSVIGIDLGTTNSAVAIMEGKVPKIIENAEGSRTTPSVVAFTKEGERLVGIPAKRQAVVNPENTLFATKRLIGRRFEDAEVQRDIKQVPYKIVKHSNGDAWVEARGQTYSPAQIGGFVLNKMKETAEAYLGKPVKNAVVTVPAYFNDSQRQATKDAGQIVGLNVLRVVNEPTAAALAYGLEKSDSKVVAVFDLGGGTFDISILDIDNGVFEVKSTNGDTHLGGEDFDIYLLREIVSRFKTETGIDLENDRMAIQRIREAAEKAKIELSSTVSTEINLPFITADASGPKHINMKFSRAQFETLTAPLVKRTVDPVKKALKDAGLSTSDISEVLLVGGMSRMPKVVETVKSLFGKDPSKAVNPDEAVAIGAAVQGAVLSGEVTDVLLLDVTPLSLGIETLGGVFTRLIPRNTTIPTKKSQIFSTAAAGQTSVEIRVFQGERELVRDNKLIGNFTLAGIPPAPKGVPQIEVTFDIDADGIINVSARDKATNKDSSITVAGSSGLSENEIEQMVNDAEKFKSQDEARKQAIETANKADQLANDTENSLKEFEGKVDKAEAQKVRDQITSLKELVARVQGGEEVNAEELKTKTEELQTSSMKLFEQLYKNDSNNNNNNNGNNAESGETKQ
Assay: fluorescence polarisation
value_kind: pKd
Kindly note that pKd refers to -log10 of the concentration in mol/L and answer with the value alone.

**Query** Output pKd of CALLLSAPRR (fluorescein fluorophore covalently attached to the cysteine residue) [fluorescein-labeled P5 peptide (F-P5)]
**Result** 4.51
